Data provenance is paper PMC10663500.

Target: T1, mouse programmed cell death protein 1 Fc fusion protein (mPD-1-Fc), mPD-1 C60S (aa 25-167) (Mus musculus, UniProt Q02242, stabilised)
T1 construct: not cleaved; source: Expi293F, purified (Protein A, SEC; dimeric fraction); not shown: Fc (human), C-terminal, kept
Test: SPR; Carterra LSA; Fab from the ammonium sulfate precipitate of the culture supernatant immobilised on a NiHC200M chip; hPD-1 (1-1024 nM) or mPD-1-Fc (4-1024 nM) as analyte, fourfold dilution series, no regeneration; HBS-EP pH 7.4, 25 °C; medians over the spots of a construct, KD = koff/kon
Settings: one partner purified
Consider the following binders; for each one, report its koff.
Please reply with the bare figure in s⁻¹ and do not write the unit itself.

Query block: What value of measured koff is listed for toripalimab Fab H.T58A (Fab, V domains shown, heavy chain of Sm3 with this change; numbers count from the chain's first residue; as the light chain of Sm3; source: Brevibacillus, culture supernatant (ammonium sulfate precipitate); not shown: 6xHis, C-terminal, kept; 6xHN, C-terminal, kept) VH: QGQLVQSGAEVKKPGASVKVSCKASGYTFTDYEMHWVRQAPIHGLEWIGVIESETGGAAYNQKFKGRVTITADKSTSTAYMELSSLRSEDTAVYYCAREGITTVATTYYWYFDVWGQGTTVTVSS VL: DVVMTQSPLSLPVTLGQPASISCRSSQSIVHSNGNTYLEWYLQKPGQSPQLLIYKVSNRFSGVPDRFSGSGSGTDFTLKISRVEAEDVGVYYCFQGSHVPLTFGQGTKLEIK ?
Result block: 0.0066

Query block: What value of measured koff is listed for toripalimab Fab H.G100A (Fab, V domains shown, heavy chain of Sm3 with this change; numbers count from the chain's first residue; as the light chain of Sm3; source: Brevibacillus, culture supernatant (ammonium sulfate precipitate); not shown: 6xHis, C-terminal, kept; 6xHN, C-terminal, kept) VH: QGQLVQSGAEVKKPGASVKVSCKASGYTFTDYEMHWVRQAPIHGLEWIGVIESETGGTAYNQKFKGRVTITADKSTSTAYMELSSLRSEDTAVYYCAREAITTVATTYYWYFDVWGQGTTVTVSS VL: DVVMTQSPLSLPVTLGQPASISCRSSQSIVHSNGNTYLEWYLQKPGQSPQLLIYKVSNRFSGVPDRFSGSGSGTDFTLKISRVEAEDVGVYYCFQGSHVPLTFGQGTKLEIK ?
Result block: 0.0353
